# System: LOX IMVI melanoma
# Test Summary: NCI tumour cell line growth inhibition, 48 h
Parameter Measured: log10 of TGI (log10 of the value in µM)
Recorded TGI (log10, µM)

Examples from the recorded data:
Compound	log10 of TGI
COc1cc(/C=C/c2cc(/C=C/c3ccc(O)c(OC)c3)n(C(=O)Nc3ccc(Cl)cc3)n2)ccc1O	0.35
COC(=O)/C=C(\S/C=C(/c1ccccc1)N1CCn2c(C(=O)c3ccccc3)c(C(=O)OC)c(C(=O)OC)c21)C(=O)OC	0.63

Given item COc1cccc(/C(C)=N/NC(=O)CSc2nc3ccccc3c(=O)n2CCc2ccc(S(N)(=O)=O)cc2)c1 , the value recorded as its log10 of TGI is 1.07

Given item Cc1ccc(O)c(C2=CC(c3cccc(Br)c3)SC(N)=N2)c1 (centres undefined) , the value recorded as its log10 of TGI is 1.54

Given item COc1cc2c(=O)n(CCN(C)C)c3c4cc5c(cc4ccc3c2cc1OC)OCO5 , the value recorded as its log10 of TGI is -0.49

----------
# Tested on: SNB-78 CNS
# Test Summary: NCI tumour cell line growth inhibition, 48 h
Parameter Measured: TGI

Given item COC(=O)/C=c1\s/c(=C\C(=O)OC)c2ccccc12 , the value recorded as its TGI is > 100 µM

Given item CC1NC(=O)C2=C1C(N)=NC(=O)C2 (centres undefined) , the value recorded as its TGI is > 100 µM

Given item Cc1nc2sccn2c1C(=O)NC(=O)Nc1ccc(Cl)cc1 , the value recorded as its TGI is > 100 µM

----------
# Tested on: A549 NSCLC
# Test Summary: NCI tumour cell line growth inhibition, 48 h
Items are presented alongside their recorded TGI.

Examples from the recorded data:
Compound	Assay Result
CCN(CC)CCCNc1[nH]ncc2c(C)c3nc4ccc(OC)cc4c3cc12	2.73 µM
CCCN1C(=O)/C(=C\c2ccc(OC)c(OC)c2)SC1=Nc1ccccc1	> 100 µM
O=C1c2ccccc2C(=O)c2c(NCC3CO3)ccc(NCC3CO3)c21 (stereo not drawn)	58.8 µM
O=C(c1ccccc1)n1c(-c2ccccc2)cs/c1=N\S(=O)(=O)c1ccc(N2N=C3c4ccccc4CC3C2c2cccs2)cc1 (stereo not drawn)	> 100 µM
C#COc1cccc(Nc2ncnc3cc(NC(=O)[C@H](C)Cl)ccc23)c1	> 62.5 µM

Lab entry: A549 NSCLC assay, compound C=CCN(c1cc(OC)c2[nH]c(C(=O)OCC)c(C)c2c1[N+](=O)[O-])S(C)(=O)=O , TGI = > 100 µM

Lab entry: A549 NSCLC assay, compound C=CCCCCOC1C=CC(O)C(CO)O1 (stereo not drawn) , TGI = > 100 µM

Lab entry: A549 NSCLC assay, compound Nc1c2c(nc3ccccc13)-c1ccccc1NCCC2 , TGI = > 100 µM

Lab entry: A549 NSCLC assay, compound CC1CN=C(c2cccc(-c3nc(-c4cccc(C5=NCC(C)N5)c4)nc(N(C)C)n3)c2)N1 (stereo not drawn) , TGI = 9.27 µM

Lab entry: A549 NSCLC assay, compound Cc1cc(Cl)ccc1Nc1nc(C(F)(F)F)ccc1C(=O)N/N=C/c1ccccc1Cl , TGI = 11.6 µM

Lab entry: A549 NSCLC assay, compound O=[N+]([O-])/C(C(Cl)=C(Cl)Cl)=C(\N1CCCCC1)n1nnc2ccccc21 , TGI = 51.1 µM

Lab entry: A549 NSCLC assay, compound CC(=O)OC1CC[C@@]2(C)C(CC[C@]3(C)C2CC=C2[C@@H]4C(C)[C@H](C)CCC4(C)CCC23C)[C@@]1(C)C(=O)O (stereo partly drawn) , TGI = 45.6 µM

Lab entry: A549 NSCLC assay, compound C#CCN(C(=O)C(F)(F)F)c1ccc(C(=O)c2ccc(N(CC#C)C(=O)C(F)(F)F)cc2)cc1 , TGI = > 100 µM

----------
# Test system: OVCAR-5 ovarian
# Test Summary: NCI tumour cell line growth inhibition, 48 h
Parameter Measured: TGI

Compound	TGI
COC(=O)/C=c1\s/c(=C\C(=O)OC)c2ccccc12	> 100 µM
C=CCN(c1cc(OC)c2[nH]c(C(=O)OCC)c(C)c2c1[N+](=O)[O-])S(C)(=O)=O	99.1 µM
CN(C)CCNC(=O)c1cccc2ccc(-c3ccc(-c4ccccc4)cc3)nc12	13.9 µM

Given item COc1cc(/C=C/c2cc(/C=C/c3ccc(O)c(OC)c3)n(C(=O)Nc3ccc(Cl)cc3)n2)ccc1O , the value recorded as its TGI is 7.52 µM

Given item COc1ccccc1NS(=O)(=O)c1ccc2oc(SC(C)C)nc2c1 , the value recorded as its TGI is > 100 µM

Given item O=C1CSC2=NC3=C(CSC/C3=C\c3ccccc3)C(c3ccccc3)N12 (stereo not given) , the value recorded as its TGI is > 100 µM

Given item C=CCCCCOC1C=CC(O)C(CO)O1 (stereo not given) , the value recorded as its TGI is > 100 µM

Given item Cc1cccc(NC(=O)/C=C/c2ccc([N+](=O)[O-])cc2)c1 , the value recorded as its TGI is > 57 µM

Given item COc1ccc(Cn2cc3c(c2-c2ccccc2)CCc2cnoc2-3)cc1N , the value recorded as its TGI is > 100 µM

Given item CCn1c2c(c3ccccc31)C(c1ccccc1)CC1C(=O)N(c3ccccc3)C(=O)C21 (stereo not given) , the value recorded as its TGI is > 100 µM

----------
# Test system: OVCAR-5 ovarian
# Test Summary: NCI tumour cell line growth inhibition, 48 h
Items are presented alongside their recorded TGI.
Entry rule: numbers only, all in µM.

Examples from the recorded data:
Molecule	Parameter Measured	Uom	Assay Result
NC(=S)N=Nc1c(O)c2ccccc2c2ccccc12	TGI	µM	6.94
COc1ccc2c(c1)c(=O)c1c(NCCN(C)C)ccc3nnn2c31	TGI	µM	19.6
Cc1c(C(N)=O)sc2c1c(=O)n(Cc1ccccc1)c1nnc(-c3ccc(Br)cc3)n21	TGI	µM	21.3
CO[C@@H]1C[C@H](OC(N)=O)[C@@H]2C=C[C@@H]3/C=C(C)/C=C/[C@@H](C)[C@H](/C(C)=C/[C@@H](C)NC(C)=O)OC(=O)/C=C/C=C(C)\C=C\[C@]3(C)[C@@H]2C1	TGI	µM	3.63
COC(=O)[C@@H]1CC(C(CN)c2cn(C(=O)OC(C)(C)C)c3ccccc23)C(=O)N1C(=O)OC(C)(C)C (stereo not given in full)	TGI	µM	84.2

We next turn to a different molecule, shown below.
Given item Cc1ccc2oc3c(c(Br)c(Br)n3C)c(=O)c2c1 , the value recorded as its TGI is 99.7

----------
# Tested on: RXF 393 renal
# Test Summary: NCI tumour cell line growth inhibition, 48 h
Parameter Measured: TGI (µM)
Entry rule: numbers only, all in µM.

Examples from the recorded data:
Compound	TGI (µM)
COc1ccc(C2C=C(c3ccc(Cl)cc3)N=C3SC=C(C)N32)c(Br)c1 (stereo unspecified)	9.59
COC(=O)/C=C\C(C#N)(C#N)N=Cc1sccc1C	4.22
ClCc1cccc(CSc2ncnc3c2ncn3Cc2cccc(CCl)c2)c1	2.4

Lab entry: RXF 393 renal assay, compound COc1cc2c(=O)n(CCN(C)C)c3c4cc5c(cc4ccc3c2cc1OC)OCO5 , TGI = 1.14

Lab entry: RXF 393 renal assay, compound COc1cccc(C2C3=C(COC3=O)N(CCO)c3cc4c(cc32)OCO4)c1 (stereo unspecified) , TGI = 0.352

Lab entry: RXF 393 renal assay, compound CCCCCCCCCCCCCC(=O)CSCCNC(=O)CCNC(=O)[C@@H](O)C(C)(C)COP(=O)(O)OP(=O)(O)OCC1OC(n2cnc3c(N)ncnc32)C(O)C1OP(=O)(O)O (stereo partly specified) , TGI = 42.3

Lab entry: RXF 393 renal assay, compound CCN(CC)CCn1[nH]c2c3ccc(=O)cc3sc3c(NCCN)ccc1c32 , TGI = 3.43

Lab entry: RXF 393 renal assay, compound COc1ccc2c3c([nH]c2c1)CCN(Cc1ccccc1)C3 , TGI = 50.7

----------
# Tested on: OVCAR-4 ovarian
# Test Summary: NCI tumour cell line growth inhibition, 48 h
Parameter Measured: TGI

Compound	TGI
Cc1cccc(NC(=O)/C=C/c2ccc([N+](=O)[O-])cc2)c1	> 56.3 µM
O=C(NCc1ccco1)c1cccc(NC2=C(Cl)C(=O)N(Cc3ccccc3)C2=O)c1	64.3 µM
COc1ccc(C(CC(=O)c2ccccc2)C(C(=O)c2ccccc2)C(c2ccc(OC)cc2)C2C(=O)NC(=S)NC2=O)cc1 (stereo not given)	> 100 µM

Given item O=C1CCCCC/C1=C\c1ccccc1 , the value recorded as its TGI is > 100 µM

Given item CC1C2=C(CCCC2=O)N(c2ccc(Cl)cc2)C2=C1C(=O)CCC2 , the value recorded as its TGI is > 100 µM

Given item CCC(O)c1ccc(N=Cc2ccccc2O)cc1 (stereo not given) , the value recorded as its TGI is > 100 µM

Given item O=C(N/N=C/c1cc(Cl)cc(Cl)c1[O-])c1ccccc1.O=C(N/N=C/c1cc(Cl)cc(Cl)c1[O-])c1ccccc1.[Co+2] , the value recorded as its TGI is > 100 µM

Given item CC1=C(C)C2(O)C(=C(C)C1=O)/C(=C(/O)c1ccccc1)c1nc3ccccc3n12 (stereo not given) , the value recorded as its TGI is 27.1 µM

Given item CCOC(=O)C(O)(C(=O)OCC)c1cc(C(C)(C)C)c(O)c(C(C)(C)C)c1 , the value recorded as its TGI is > 100 µM

Given item Cc1ccc(O)c(C2=CC(c3cccc(Br)c3)SC(N)=N2)c1 (stereo not given) , the value recorded as its TGI is > 100 µM
